Cited source for all entries: the RNAGym collection of RNA variant scans (doi:10.7554/elife.80360)

B1: HDV Ribozyme (parent)
chain: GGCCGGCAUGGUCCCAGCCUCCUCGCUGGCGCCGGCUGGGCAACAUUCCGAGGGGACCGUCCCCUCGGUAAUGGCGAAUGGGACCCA

Variants of: B1
Assay: self-cleavage, relative activity (ratio to wild type); higher = more cleavage; co-transcriptional
Property measured: self-cleavage
Answer with the value's number alone.

Worked examples follow.
The variant identified as GGCCGGUAUGGUCCCAGCCUCCUCGCUGGCGCCGGCUGGGCAACAUUCCGAGGGGACCGUCCCCACGGUAAUGGCGAAUGGGACCCA [C7U U65A] registered its self-cleavage at 0.475

The variant identified as GGCCGGCAUGGUCCCACCCGCCUCGCUGGCGCCGGCUGGGCAACAUUCCGAGGGGACCGUCCCCUCGGUAAUGGCGAAUGGGACCCA [G17C U20G] registered its self-cleavage at 0.128

The variant identified as GGCCGGCAUGGUCCCAGCCUCCUCGCUGUCGCCGGCUGGGCAACAUUCCGAGGGGACCGUCCCCACGGUAAUGGCGAAUGGGACCCA [G29U U65A] registered its self-cleavage at 0.175

The variant identified as GGCCGGCAUGGUCCCAGCCUCCUCGCUGGCGCCAGCUGGGCAACAUUCCGCGGGGACCGUCCCCUCGGUAAUGGCGAAUGGGACCCA [G34A A51C] registered its self-cleavage at 0.193

The variant identified as GGCCAGCAAGGUCCCAGCCUCCUCGCUGGCGCCGGCUGGGCAACAUUCCGAGGGGACCGUCCCCUCGGUAAUGGCGAAUGGGACCCA [G5A U9A] registered its self-cleavage at 0.332

Continuing:
The variant identified as GGCCGGGAUGGUCCCAGCCUCCUCGCUGGCGCCGGCUGGGCAACAUUCCGAGGGGACUGUCCCCUCGGUAAUGGCGAAUGGGACCCA [C7G C58U] registered its self-cleavage at 0.492

The variant identified as GGCCGGCAUGGUCCCAGCCUCCUCGCUGACGCCGGCUGGGCAACAUUCCGAGGGGACCGUCCCCUCGGUAAUGGCGAAGGGGACCCA [G29A U79G] registered its self-cleavage at 0.154

The variant identified as GGCCGGCAUGGUCCCAGCCUCCUCGCUGGCGCCCGCUGGGCAACAUUCCGAGGGGACCGUCCCCUCGGUAAUGGCGAACGGGACCCA [G34C U79C] registered its self-cleavage at 0.227

The variant identified as GGCCGGCAUGGUCCCAGUCUUCUCGCUGGCGCCGGCUGGGCAACAUUCCGAGGGGACCGUCCCCUCGGUAAUGGCGAAUGGGACCCA [C18U C21U] registered its self-cleavage at 0.0911

The variant identified as GGCCGGCAUGGUCCCAGCCUCCUCGCUGGCGCCGGCUGGGCUACAUUCCGAGGGGACCGUCCCCGCGGUAAUGGCGAAUGGGACCCA [A42U U65G] registered its self-cleavage at 0.457

The variant identified as GGCCGGCAUGGUCCCAGCCUCCUCGCUGGCGCCGGCUGGGCAACAUUCCGAGGGGACCGUCCCCUCGGUAAUCGCCAAUGGGACCCA [G73C G76C] registered its self-cleavage at 0.501
